Origin of measurements: paper PMC5540273

Test system: TRPM6
Settings: concentration: 1 μM, replicates: in singlicate; n = 1;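 further: KINOMEscan kinase panel screen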
Give measured %Inh for each item. Keep answers brief.
One number for each entry, in %.

Please give %Inh, item by item, for the list that follows.
1. CCc1ccnc(/C=C/c2n[nH]c3cc(Sc4ccccc4C(=O)NC)ccc23)c1
2. Fc1ccc(-c2ncn(CCCN3CCOCC3)c2-c2cccnc2)cc1
3. NS(=O)(=O)c1cccc(-c2ccc3ncc(N4CCOCC4)nc3c2)c1

A.
1: 4; 2: 3; 3: 0

---

System: PLK2
Conditions: concentration: 1 μM, replicates: in singlicate; n = 1
Parameter: %Inh (%)
Give bare numbers, in %.

Example entries begin here.
NS(=O)(=O)CCc1cccc(Nc2nccc(-c3c(-c4cccc(NC(=O)c5c(F)cccc5F)c4)nn4ccccc34)n2)c1 :: 25
COc1cc2c(cc1OCCN1CCN(C)CC1)ncc1c3ccc(C#N)cc3[nH]c21 :: 16

Please give %Inh, item by item, for the list that follows.
1. CCn1cnc2c(N)ncnc21
2. CN1c2ccc(NCc3ccc(F)cc3)cc2-c2c(cnn2C)S1(=O)=O
3. CC(C)(C)n1cnc2c(N)ncnc21

A.
7
0
0

Please give %Inh, item by item, for the list that follows.
1. Cc1nnc(-c2ccc(C)c(-c3ccc(C(=O)Nc4ccc(NS(C)(=O)=O)cc4)cc3)c2)o1
2. COc1ccc(S(=O)(=O)NC2CCN(c3cc(C)nc(Nc4cccc(C#N)c4)n3)CC2)cc1.O=C(O)C(F)(F)F
3. Cc1c2ccc(N(C)c3ccnc(Nc4cccc(S(N)(=O)=O)c4)n3)cc2nn1Cc1ccccc1.Cl.Cl
4. Cl.Nc1ncnc2occ(-c3ccc(NC(=O)Nc4cc(C(F)(F)F)ccc4F)cc3)c12
5. N#Cc1ccc(-c2cc(-c3c[nH]nc3-c3ccccn3)ccn2)cc1
6. O=c1cc(N2CCOCC2)nc2n(Cc3cccc(C(F)(F)F)c3)ccn12
7. O=c1cc(N2CCOCC2)nc2n(Cc3cccc(Cl)c3Cl)c(C3CC3)nn12
8. Cc1c(Cn2c(C)nn3c(=O)cc(N4CCOC(C)C4)nc23)cccc1C(F)(F)F (centres unmarked)

A.
1. 0
2. 0
3. 0
4. 98.8
5. 0
6. 0
7. 0
8. 0

Please give %Inh, item by item, for the list that follows.
1. O=C1Cc2cc(Nc3nc(NCc4cccc(S(=O)(=O)C(F)(F)F)c4)ncc3C(F)(F)F)ccc2N1
2. Nc1nccc(-c2c(-c3ccc(F)cc3)ncn2C2CCN(CC(F)(F)F)CC2)n1

A.
1. 5
2. 0

Please give %Inh, item by item, for the list that follows.
1. c1ccc(-c2n[nH]cc2-c2ccnc3ccccc23)nc1
2. O=C(NCCCN1CCOCC1)c1cccc(Nc2nccc(Nc3ccc(Oc4ccccc4)cc3)n2)c1
3. O=C(NCCNc1ccnc(Nc2ccc(F)cc2)n1)c1cc2ccccc2s1
4. CN(C1=C(c2ccccc2)C(=O)NC1=O)c1ccccc1
5. COc1cc2ncn(-c3cc(OCc4sccc4Cl)c(C(N)=O)s3)c2cc1OC
6. CCc1ccnc(/C=C/c2n[nH]c3cc(Sc4ccccc4C(=O)NC)ccc23)c1
7. COc1ccc(Nc2nccc(N3CCC(NC(=O)Nc4cccc(C(C)=O)c4)C3)n2)cc1 (centres unmarked)
8. COc1ccc(COc2cc(-n3cnc4ccccc43)sc2C(N)=O)cc1

A.
0
0
0
2
99.5
0
0
90

Please give %Inh, item by item, for the list that follows.
1. Cl.Oc1cccc(Nc2ccnc3cc(-c4ccncc4)ccc23)c1
2. Nc1nc(-c2ccc3c(N)n[nH]c3c2)cc(N2CCCC2)n1
3. COc1ccc(Nc2ncc(C#N)c(Nc3ccccc3C(N)=O)n2)cc1N1CCN(C)CC1.Cl
4. CSc1ccc(-c2cc3ncnc(SCC(=O)O)c3s2)cc1
5. COc1cc(Nc2nccc(N3CCC(NC(=O)c4cccc(NC(C)=O)c4)C3)n2)cc(OC)c1OC (centres unmarked)

A.
[0, 0, 100, 0, 0]

Q. For the molecule `CCCCCc1nc2c(N)ncnc2n1CCCCC` , what %Inh is on record?
A. 18

---

Test system: CAMK1B
Details: concentration: 1 μM, replicates: in singlicate; n = 1
Give measured %Inh for each item. Keep answers brief.
Answers are plain numbers, in %.

Cl.Nc1ncnc2occ(-c3ccc(NC(=O)Nc4cc(C(F)(F)F)ccc4F)cc3)c12 :: 36
COc1ccc(Nc2nccc(N3CCC(NC(=O)Nc4cccc(C(C)=O)c4)C3)n2)cc1 (centres unmarked) :: 13
O=C(Nc1cccc(-c2nn3ncccc3c2-c2ccnc(Nc3cccc(C(F)(F)F)c3)n2)c1)c1c(F)cccc1F :: 30

Please give %Inh, item by item, for the list that follows.
1. COc1cc(Nc2nccc(N3CCC(NC(=O)c4cccc(NC(C)=O)c4)C3)n2)cc(OC)c1OC (centres unmarked)
2. Cc1cn2c(=O)cc(N3CCOCC3)nc2n1Cc1cccc(Cl)c1Cl
3. O=C1NC(=O)C(N2CCc3ccccc32)=C1c1cccc(Cl)c1
4. COc1cc2c(cc1OCCN1CCN(C)CC1)ncc1c3ccc(C#N)cc3[nH]c21
5. CC(C)(C)n1cnc2c(N)ncnc21

A.
[7, 40, 0, 19, 63]

---

Test system: FGFR3
Conditions: concentration: 1 μM, replicates: in singlicate; n = 1
Give measured %Inh for each item. Keep answers brief.

Example entries begin here.
Cc1c2ccc(N(C)c3ccnc(Nc4cccc(S(N)(=O)=O)c4)n3)cc2nn1Cc1ccccc1.Cl.Cl :: 59%
Cc1cccc(-c2nc(Nc3ccc4ncsc4c3)c3ccccc3n2)n1 :: 0%
CSc1ccc(-c2cc3ncnc(SCC(=O)O)c3s2)cc1 :: 0%
Cc1cn2c(=O)cc(N3CCOCC3)nc2n1Cc1cccc(Cl)c1Cl :: 18%
CCc1nc(-c2cccc(C)c2)c(-c2ccnc(NCc3ccccc3)c2)s1 :: 0%

Please give %Inh, item by item, for the list that follows.
1. COc1ccc(COc2cc(-n3cnc4ccccc43)sc2C(N)=O)cc1
2. NCC(NC(=O)c1cc(-c2cn[nH]c2)c(-c2ccnc3[nH]ccc23)s1)c1ccccc1.O=C(O)C(F)(F)F.O=C(O)C(F)(F)F (centres unmarked)
3. O=C(c1ccc(-c2cc(-c3c[nH]nc3-c3ccccn3)ccn2)cc1)N1CCOCC1

A.
1%
0%
0%

---

Give measured %Inh for each item. Keep answers brief.
Tested on: ROCK1
Conditions: concentration: 1 μM, replicates: in singlicate; n = 1

O=C(NOCC1CC1)c1ccc(F)c(F)c1Nc1ccc(I)cc1Cl :: 0%
O=C(NCCNc1ccnc(Nc2ccc(F)cc2)n1)c1cc2ccccc2s1 [GSK1379874] :: 29%
Cl.Oc1cccc(Nc2ccnc3cc(-c4ccncc4)ccc23)c1 [GW494601] :: 88%

Please give %Inh, item by item, for the list that follows.
1. O=C(c1ccc(-c2cc(-c3c[nH]nc3-c3ccccn3)ccn2)cc1)N1CCOCC1 [GW812171]
2. CC(=O)Nc1ccc(COc2ccc(Nc3ccnc4cc(-c5ccccn5)ccc34)cc2)cc1.Cl [GW440148]

A.
1. 0%
2. 14%

---

Tested on: MAP3K4
Conditions: concentration: 1 μM, replicates: in singlicate; n = 1
Give measured %Inh for each item. Keep answers brief.
One number for each entry, in %.

Example entries begin here.
Cl.Oc1cccc(Nc2ccnc3cc(-c4ccncc4)ccc23)c1 :: 0
COc1ccc(CNC(=O)NC2CCN(c3ccnc(Nc4ccc(OC)cc4)n3)C2)cc1 (centres unmarked) :: 10
O=C(c1ccc(-c2cc(-c3c[nH]nc3-c3ccccn3)ccn2)cc1)N1CCOCC1 :: 9
Cc1c2ccc(N(C)c3ccnc(Nc4cccc(S(N)(=O)=O)c4)n3)cc2nn1Cc1ccccc1.Cl.Cl :: 22
O=c1cc(N2CCOCC2)nc2n(Cc3cccc(Cl)c3Cl)c(C3CC3)nn12 :: 19

Please give %Inh, item by item, for the list that follows.
1. COc1ccc(COc2cc(-n3cnc4ccccc43)sc2C(N)=O)cc1
2. O=C(Nc1cccc(-c2nn3ncccc3c2-c2ccnc(Nc3cccc(C(F)(F)F)c3)n2)c1)c1c(F)cccc1F
3. COC(=O)Nc1nc2cc(Oc3ccc(NC(=O)Nc4cc(F)ccc4F)cc3)ccc2[nH]1.Cl

A.
20
33
0

---

Tested on: CAMKK2
Settings: concentration: 1 μM, replicates: in singlicate; n = 1
Tag: rule met if measured %Inh is not below 10%, rule not met if it is.

Cl.Oc1cccc(Nc2ccnc3cc(-c4ccncc4)ccc23)c1 :: rule met
CN(C1=C(c2ccccc2)C(=O)NC1=O)c1ccccc1 :: rule met
O=C(NCCNc1ccnc(Nc2ccc(F)cc2)n1)c1cc2ccccc2s1 :: rule not met
O=C(Nc1n[nH]c2cc(-c3cccc(F)c3)ccc12)C1CC1 :: rule met
C[C@@H](Oc1cc(-n2cnc3ccc(NC(=O)NC(C)(C)C)cc32)sc1C(N)=O)c1ccccc1Cl :: rule met

Q. Does the compound `CSc1ccc(-c2cc3ncnc(SCC(=O)O)c3s2)cc1` have recorded %Inh that is 10% or more?
A. rule met

Q. Does the compound `O=C(Nc1cccc(-c2nn3ncccc3c2-c2ccnc(Nc3cccc(C(F)(F)F)c3)n2)c1)c1c(F)cccc1F` have recorded %Inh that is 10% or more?
A. rule not met

Q. Does the compound `COC(=O)Nc1nc2cc(Oc3ccc(NC(=O)Nc4cc(F)ccc4F)cc3)ccc2[nH]1.Cl` have recorded %Inh that is 10% or more?
A. rule not met

Q. Does the compound `Cc1nnc(-c2ccc(C)c(-c3ccc(C(=O)Nc4ccc(NS(C)(=O)=O)cc4)cc3)c2)o1` have recorded %Inh that is 10% or more?
A. rule not met
